# SUBJECT_OF_TEST: Beta-galactoside alpha-2,6-sialyltransferase 1 (Homo sapiens, UniProt P15907)
# Sequence (P15907 whole entry): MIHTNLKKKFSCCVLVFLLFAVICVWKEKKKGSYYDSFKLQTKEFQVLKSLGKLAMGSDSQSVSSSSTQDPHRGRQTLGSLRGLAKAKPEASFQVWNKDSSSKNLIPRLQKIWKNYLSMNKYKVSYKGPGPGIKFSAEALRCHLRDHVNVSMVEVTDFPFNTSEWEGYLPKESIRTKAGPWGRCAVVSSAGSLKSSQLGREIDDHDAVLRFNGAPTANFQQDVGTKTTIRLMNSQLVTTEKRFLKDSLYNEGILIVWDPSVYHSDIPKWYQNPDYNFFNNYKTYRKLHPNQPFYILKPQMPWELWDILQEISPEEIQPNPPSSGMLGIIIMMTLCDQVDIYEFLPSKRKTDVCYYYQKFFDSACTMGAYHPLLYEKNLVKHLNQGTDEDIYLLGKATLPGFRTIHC
# PROCEDURE_TEXT: Inhibition of recombinant human N-terminal His tagged ST6GAL1 (44 to 406 residues) by UPLC-based assay
pIC50: −log10 of the molar value.
QUANTITY: pIC50

Query: Param item = C[C@H](CCC(=O)O)[C@H]1CC[C@H]2[C@@H]3[C@H](O)C[C@@H]4C[C@H](O)CC[C@]4(C)[C@H]3CC[C@]12C [CHENODIOL] ; retrieve measured pIC50.
Response: < 4.30

Query: Param item = C[C@H](CCC(=O)O)[C@H]1CC[C@H]2[C@@H]3C[C@H](O)[C@@H]4C[C@H](O)CC[C@]4(C)[C@H]3CC[C@]12C [HYODEOXYCHOLIC_ACID] ; retrieve measured pIC50.
Response: < 4.30

Query: Param item = C[C@H](CCCOS(=O)(=O)O)[C@H]1CC[C@H]2[C@@H]3CC[C@@H]4C[C@H](OS(=O)(=O)O)CC[C@]4(C)[C@H]3CC[C@]12C ; retrieve measured pIC50.
Response: 4.67

* * *

# SUBJECT_OF_TEST: Beta-galactoside alpha-2,6-sialyltransferase 1 (Homo sapiens, UniProt P15907)
# PROCEDURE_TEXT: Inhibition of human ST6GAL1 in the Galbeta1,4GlcNAcbeta-4,5-dimethoxy-2-nitrobenzyl
QUANTITY: IC50 (µM)
Reply with just the number (in µM).

Query: Param item = C[C@H](CCC(=O)O)[C@H]1CC[C@H]2[C@@H]3CC[C@@H]4C[C@H](OC(=O)[C@@H](N)CC(=O)O)CC[C@]4(C)[C@H]3CC[C@]12C ; retrieve measured IC50.
Response: 17

* * *

Reported values of inhibition for individual entries
# SUBJECT_OF_TEST: Beta-galactoside alpha-2,6-sialyltransferase 1 (Homo sapiens)
# Sequence (whole entry): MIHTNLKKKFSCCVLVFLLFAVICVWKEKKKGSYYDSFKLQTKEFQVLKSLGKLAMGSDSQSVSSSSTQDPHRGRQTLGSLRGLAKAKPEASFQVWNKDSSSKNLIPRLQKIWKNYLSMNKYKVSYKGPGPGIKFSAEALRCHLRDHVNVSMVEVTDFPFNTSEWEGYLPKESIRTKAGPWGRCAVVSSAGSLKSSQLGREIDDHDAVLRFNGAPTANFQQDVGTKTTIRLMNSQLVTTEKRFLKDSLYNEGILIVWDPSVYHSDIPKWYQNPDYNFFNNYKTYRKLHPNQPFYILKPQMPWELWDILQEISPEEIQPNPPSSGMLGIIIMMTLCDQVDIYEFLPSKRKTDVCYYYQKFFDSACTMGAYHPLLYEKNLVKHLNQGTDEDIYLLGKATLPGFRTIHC
# PROCEDURE_TEXT: Inhibition of recombinant human N-terminal His tagged ST6GAL1 (44 to 406 residues) at 50 uM by UPLC-based assay relative to control
Reply with just the number (in %).

Solved entries:
GIVEN_SMILES	QUANTITY	RECORDED_VALUE
C[C@H](CCC(=O)O)[C@H]1CC[C@H]2[C@@H]3[C@@H](O)C[C@@H]4C[C@H](O)CC[C@]4(C)[C@H]3CC[C@]12C	inhibition	0
C[C@H](CCC(=O)O)[C@H]1CC[C@H]2[C@@H]3CC[C@@H]4C[C@H](OS(=O)(=O)O)CC[C@]4(C)[C@H]3CC[C@]12C	inhibition	0
C[C@H](CCC(=O)O)[C@H]1CC[C@H]2[C@@H]3[C@H](O)C[C@@H]4C[C@H](O)CC[C@]4(C)[C@H]3CC[C@]12C	inhibition	0
C[C@H](CCC(=O)NCCS(=O)(=O)O)[C@H]1CC[C@H]2[C@@H]3CC[C@@H]4C[C@H](O)CC[C@]4(C)[C@H]3C[C@H](O)[C@]12C	inhibition	0
C[C@H](CCCS(=O)(=O)O)[C@H]1CC[C@H]2[C@@H]3CC[C@@H]4C[C@H](OS(=O)(=O)O)CC[C@]4(C)[C@H]3CC[C@]12C	inhibition	0

Now take the following molecule into account.
Query: Param item = C[C@H](CCCOS(=O)(=O)O)[C@H]1CC[C@H]2[C@@H]3CC[C@@H]4C[C@H](O)CC[C@]4(C)[C@H]3CC[C@]12C ; retrieve measured inhibition.
Response: 100

* * *

# SUBJECT_OF_TEST: UniProt Q6H8N0
# Sequence (Q6H8N0 whole entry): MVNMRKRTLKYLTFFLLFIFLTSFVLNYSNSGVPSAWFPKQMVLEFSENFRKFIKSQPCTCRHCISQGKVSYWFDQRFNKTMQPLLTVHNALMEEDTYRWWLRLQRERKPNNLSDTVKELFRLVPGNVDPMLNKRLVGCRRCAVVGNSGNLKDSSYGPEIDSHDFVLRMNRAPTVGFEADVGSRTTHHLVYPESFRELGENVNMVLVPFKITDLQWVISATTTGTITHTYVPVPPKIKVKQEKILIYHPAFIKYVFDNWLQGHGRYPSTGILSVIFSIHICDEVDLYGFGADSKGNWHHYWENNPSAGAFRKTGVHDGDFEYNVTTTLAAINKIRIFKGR
Reported values of pIC50 for individual entries
Here pIC50 is given on a logarithmic scale as minus log10 of the concentration in mol/L.

Solved entries:
GIVEN_SMILES	SUBJECT_OF_TEST	pIC50
C[C@H](CCCOS(=O)(=O)O)[C@H]1CC[C@H]2[C@@H]3CC[C@@H]4C[C@H](OS(=O)(=O)O)CC[C@]4(C)[C@H]3CC[C@]12C	UniProt Q6H8N0	3.40
C[C@H](CCC(=O)O)[C@H]1CC[C@H]2[C@@H]3CC[C@@H]4C[C@H](OS(=O)(=O)O)CC[C@]4(C)[C@H]3CC[C@]12C	UniProt Q6H8N0	3.30

Now take the following molecule into account.
Query: Param item = C[C@H](CCC(=O)O)[C@H]1CC[C@H]2[C@@H]3CC[C@@H]4C[C@H](O)CC[C@]4(C)[C@H]3CC[C@]12C ; retrieve measured pIC50.
Response: 3.30

* * *

# SUBJECT_OF_TEST: Beta-galactoside alpha-2,6-sialyltransferase 1 (Homo sapiens)
# PROCEDURE_TEXT: Inhibition of recombinant human N-terminal His tagged ST6GAL1 (44 to 406 residues) by UPLC-based assay
Reported values of IC50 for individual entries

MOLECULE	SUBJECT_OF_TEST	RECORDED_VALUE
C[C@H](CCCS(=O)(=O)O)[C@H]1CC[C@H]2[C@@H]3CC[C@@H]4C[C@H](OS(=O)(=O)O)CC[C@]4(C)[C@H]3CC[C@]12C	Beta-galactoside alpha-2,6-sialyltransferase 1 (Homo sapiens)	> 50 µM
C[C@H](CCCOS(=O)(=O)O)[C@H]1CC[C@H]2[C@@H]3CC[C@@H]4C[C@H](O)CC[C@]4(C)[C@H]3CC[C@]12C	Beta-galactoside alpha-2,6-sialyltransferase 1 (Homo sapiens)	16.7 µM
C[C@H](CCC(=O)O)[C@H]1CC[C@H]2[C@@H]3CC[C@@H]4C[C@H](O)CC[C@]4(C)[C@H]3CC[C@]12C [LITHOCHOLIC ACID]	Beta-galactoside alpha-2,6-sialyltransferase 1 (Homo sapiens)	> 50 µM
C[C@H](CCCS(=O)(=O)O)[C@H]1CC[C@H]2[C@@H]3CC[C@@H]4C[C@H](O)CC[C@]4(C)[C@H]3CC[C@]12C	Beta-galactoside alpha-2,6-sialyltransferase 1 (Homo sapiens)	18.5 µM

Query: Param item = C[C@H](CCC(=O)O)[C@H]1CC[C@H]2[C@@H]3[C@@H](O)C[C@@H]4C[C@H](O)CC[C@]4(C)[C@H]3CC[C@]12C [URSODIOL] ; retrieve measured IC50.
Response: > 50 µM

Query: Param item = C[C@H](CCC(=O)O)[C@H]1CC[C@H]2[C@@H]3CC[C@@H]4C[C@H](OS(=O)(=O)O)CC[C@]4(C)[C@H]3CC[C@]12C ; retrieve measured IC50.
Response: > 50 µM

Query: Param item = C[C@H](CCC(=O)NCCS(=O)(=O)O)[C@H]1CC[C@H]2[C@@H]3CC[C@@H]4C[C@H](O)CC[C@]4(C)[C@H]3C[C@H](O)[C@]12C [TAURODEOXYCHOLIC ACID] ; retrieve measured IC50.
Response: > 50 µM
